# Tested system: Quinolone resistance protein NorA (Staphylococcus aureus) (UniProt P0A0J7)
# Procedure details: Inhibition of NorA efflux pump in Staphylococcus aureus 1199B assessed as reduction in MIC of ciprofloxacin by broth checkerboard method
Quantity name: MEC (µg/mL)
Numeric answer only, unit µg/mL assumed.

GET /values?readout=MEC&system=Quinolone resistance protein NorA (Staphylococcus aureus) (UniProt P0A0J7)&item= CCC(CO)NC(=O)/C=C/C=C/c1ccc2c(c1)OCO2 (stereo unspecified)
50

Request - read-out MEC | tested on Quinolone resistance protein NorA (Staphylococcus aureus) (UniProt P0A0J7) | compound CC(O)CCNC(=O)/C=C/C=C/c1ccc2c(c1)OCO2 (stereo unspecified)
25

Record "CC(=O)Nc1cccc(NC(=O)/C=C/C=C/c2ccc3c(c2)OCO3)c1" : what is its MEC with Quinolone resistance protein NorA (Staphylococcus aureus) (UniProt P0A0J7)?
12.5

Missing value: MEC, Quinolone resistance protein NorA (Staphylococcus aureus) (UniProt P0A0J7), entry O=C(/C=C/C=C/c1ccc2c(c1)OCO2)NCC(O)c1ccccc1 (stereo unspecified) . Fill in?
50

// lookup MEC | system=Quinolone resistance protein NorA (Staphylococcus aureus) (UniProt P0A0J7) | key= "N#Cc1ccc(NC(=O)/C=C/C=C/c2ccc3c(c2)OCO3)cc1"
25

Provide value of MEC for this record tested with Quinolone resistance protein NorA (Staphylococcus aureus) (UniProt P0A0J7): "N#Cc1cccc(NC(=O)/C=C/C=C/c2ccc3c(c2)OCO3)c1"
50

---

# Tested system: Quinolone resistance protein NorA (Staphylococcus aureus)
# Procedure details: Inhibition of NorA efflux pump in Staphylococcus aureus 1199B assessed as reduction in MIC of ciprofloxacin by broth checkerboard method
Quantity name: MEC

The cases that follow already have their MEC on record.
Smiles structure	MEC
O=C(/C=C/C=C/c1ccc2c(c1)OCO2)N1CCCCC1	25 µg/mL
NC(=O)c1ccc(NC(=O)/C=C/C=C/c2ccc3c(c2)OCO3)cc1	25 µg/mL
O=C(/C=C/C=C/c1ccc2c(c1)OCO2)Nc1ccc2ncsc2c1	3.12 µg/mL
O=C(/C=C/C=C/c1ccc2c(c1)OCO2)Nc1ccc(NC(=O)c2ccccc2)cc1	3.12 µg/mL
CC(C)CCNC(=O)/C=C/C=C/c1ccc2c(c1)OCO2	25 µg/mL
CC(=O)Nc1ccccc1NC(=O)CCCCc1ccc2c(c1)OCO2	50 µg/mL
CCCNC(=O)/C=C/C=C/c1ccc2c(c1)OCO2	50 µg/mL
CC(=O)Nc1ccc(NC(=O)/C=C/C=C/c2ccc3c(c2)OCO3)cc1	25 µg/mL
CCN(CC)C(=O)/C=C/C=C/c1ccc2c(c1)OCO2	25 µg/mL
CN1CCN(C(=O)/C=C/C=C/c2ccc3c(c2)OCO3)CC1	25 µg/mL

For the next question, use this compound.
# query: MEC of entry "CC(=O)Nc1ccccc1NC(=O)/C=C/C=C/c1ccc2c(c1)OCO2"
25 µg/mL

---

# Tested system: Quinolone resistance protein NorA (Staphylococcus aureus)
# Procedure details: Inhibition of NorA efflux pump in Staphylococcus aureus 1199B assessed as potentiation of ciprofloxacin-induced antimicrobial activity after 24 hrs by broth checkerboard method
Below, each of the compounds is paired with its reported logPF value.
Give the figure by itself; no unit, no explanation.

Please review the following examples before continuing.
Compound	Tested system	logPF
O=C(/C=C/C=C/c1ccc2c(c1)OCO2)Nc1ccc(NC(=O)c2ccccc2)cc1	Quinolone resistance protein NorA (Staphylococcus aureus)	2.48
O=C(/C=C/C=C/c1ccc2c(c1)OCO2)Nc1ccccc1	Quinolone resistance protein NorA (Staphylococcus aureus)	2.15
O=C(/C=C/C=C/c1ccc2c(c1)OCO2)Nc1cccc(CO)c1	Quinolone resistance protein NorA (Staphylococcus aureus)	1.78
O=C(/C=C/C=C/c1ccc2c(c1)OCO2)Nc1ccccc1CO	Quinolone resistance protein NorA (Staphylococcus aureus)	1.78

Fill in: logPF of "CC(=O)Nc1cccc(NC(=O)/C=C/C=C/c2ccc3c(c2)OCO3)c1" is ___
2.51

Form field: reported logPF of "O=C(CCCCc1ccc2c(c1)OCO2)N1CCCCC1"
1.3

Given "O=C(/C=C/C=C/c1ccc2c(c1)OCO2)Nc1ccc(CO)cc1" , state its recorded logPF.
2.3

Could you share which logPF value was measured for O=C(/C=C/C=C/c1ccc2c(c1)OCO2)NCC(O)c1ccccc1 (stereo not given) ?
2.15

Suppose we examine the compound "CC(C)CCNC(=O)/C=C/C=C/c1ccc2c(c1)OCO2" ; what logPF value has been reported?
1.78

Item under review: "CCN(CC)C(=O)/C=C/C=C/c1ccc2c(c1)OCO2" . Reported logPF?
1.78

Value lookup for logPF; key = "CCC(CC)NC(=O)/C=C/C=C/c1ccc2c(c1)OCO2"
1.78

Sample "CC(C)CNC(=O)/C=C/C=C/c1ccc2c(c1)OCO2" — what was its logPF?
1.78

Please look up its logPF: "CN1CCN(C(=O)/C=C/C=C/c2ccc3c(c2)OCO3)CC1"
1.78

Reported logPF, compound "O=C(/C=C/C=C/c1ccc2c(c1)OCO2)Nc1ccc(C(=O)Nc2ccccc2)cc1" : ____
2.56

---

# Tested system: Quinolone resistance protein NorA (Staphylococcus aureus)
# Sequence (whole entry): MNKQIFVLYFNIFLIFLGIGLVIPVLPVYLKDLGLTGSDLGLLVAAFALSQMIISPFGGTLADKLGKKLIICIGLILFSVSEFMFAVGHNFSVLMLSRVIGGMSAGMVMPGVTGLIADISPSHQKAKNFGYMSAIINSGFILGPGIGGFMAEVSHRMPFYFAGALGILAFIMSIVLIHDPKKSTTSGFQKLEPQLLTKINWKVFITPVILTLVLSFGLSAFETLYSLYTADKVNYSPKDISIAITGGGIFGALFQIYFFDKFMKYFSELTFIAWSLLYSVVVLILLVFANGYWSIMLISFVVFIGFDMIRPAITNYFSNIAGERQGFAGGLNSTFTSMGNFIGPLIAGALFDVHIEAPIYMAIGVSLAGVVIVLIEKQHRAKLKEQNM
# Procedure details: Inhibition of NorA efflux pump in Staphylococcus aureus 1199B assessed as potentiation of ciprofloxacin-induced antimicrobial activity after 24 hrs by broth checkerboard method
Overview of recorded PF for various compounds

Known results for compounds:
Compound	Quantity name	Result
NC(=O)c1ccc(NC(=O)/C=C/C=C/c2ccc3c(c2)OCO3)cc1	PF	60
CCN(CC)C(=O)/C=C/C=C/c1ccc2c(c1)OCO2	PF	60
CCC(CC)NC(=O)/C=C/C=C/c1ccc2c(c1)OCO2	PF	60
O=C(/C=C/C=C/c1ccc2c(c1)OCO2)Nc1ccc(C(=O)Nc2ccccc2)cc1	PF	360
CN1CCN(C(=O)/C=C/C=C/c2ccc3c(c2)OCO3)CC1	PF	60

Lab note: need PF for "O=C(/C=C/C=C/c1ccc2c(c1)OCO2)Nc1ccccc1" on Quinolone resistance protein NorA (Staphylococcus aureus), anyone have it?
140

Record "O=C(/C=C/C=C/c1ccc2c(c1)OCO2)Nc1cccc(CO)c1" : what is its PF with Quinolone resistance protein NorA (Staphylococcus aureus)?
60

Requested read-out PF, target or system Quinolone resistance protein NorA (Staphylococcus aureus), entry "O=C(/C=C/C=C/c1ccc2c(c1)OCO2)Nc1ccc2ncsc2c1"
300

// map "CC(C)CCNC(=O)/C=C/C=C/c1ccc2c(c1)OCO2" to recorded PF (system: Quinolone resistance protein NorA (Staphylococcus aureus))
60

Short answer please: PF, Quinolone resistance protein NorA (Staphylococcus aureus), entry "O=C(/C=C/C=C/c1ccc2c(c1)OCO2)Nc1nc2ccccc2s1"
200

Request: PF, test system Quinolone resistance protein NorA (Staphylococcus aureus), entry "O=C(/C=C/C=C/c1ccc2c(c1)OCO2)Nc1ccccc1CO"
60

Missing value: PF, Quinolone resistance protein NorA (Staphylococcus aureus), entry "CCN(CC)C(=O)CCCCc1ccc2c(c1)OCO2" . Fill in?
20

Test system Quinolone resistance protein NorA (Staphylococcus aureus); read-out PF; what value for CC(O)CCNC(=O)/C=C/C=C/c1ccc2c(c1)OCO2 (stereo not given) ?
60

Request: PF, test system Quinolone resistance protein NorA (Staphylococcus aureus), entry "N#Cc1ccc(NC(=O)/C=C/C=C/c2ccc3c(c2)OCO3)cc1"
60

Any idea what PF came out for "N#Cc1cccc(NC(=O)/C=C/C=C/c2ccc3c(c2)OCO3)c1" on Quinolone resistance protein NorA (Staphylococcus aureus)?
660

Find PF (Quinolone resistance protein NorA (Staphylococcus aureus)) for the entry "O=C(CCCCc1ccc2c(c1)OCO2)N1CCCCC1"
20

What reported PF corresponds to "CC(=O)Nc1ccccc1NC(=O)CCCCc1ccc2c(c1)OCO2" on Quinolone resistance protein NorA (Staphylococcus aureus)?
20

Give recorded PF with Quinolone resistance protein NorA (Staphylococcus aureus) for the following compound: "CC(=O)Nc1ccccc1NC(=O)/C=C/C=C/c1ccc2c(c1)OCO2"
260

Return PF measured with Quinolone resistance protein NorA (Staphylococcus aureus) given this compound: "CC(=O)Nc1cccc(NC(=O)/C=C/C=C/c2ccc3c(c2)OCO3)c1"
320

What is its PF for Quinolone resistance protein NorA (Staphylococcus aureus)? Entry: "O=C(/C=C/C=C/c1ccc2c(c1)OCO2)Nc1ccc(CO)cc1"
200

Find the measured PF: item O=C(/C=C/C=C/c1ccc2c(c1)OCO2)NCC(O)c1ccccc1 (stereo not given) , target or system Quinolone resistance protein NorA (Staphylococcus aureus).
140

Field: PF (Quinolone resistance protein NorA (Staphylococcus aureus)). Entry: "CC(C)CNC(=O)/C=C/C=C/c1ccc2c(c1)OCO2"
60

What PF appears in the records for this compound with Quinolone resistance protein NorA (Staphylococcus aureus)? "O=C(/C=C/C=C/c1ccc2c(c1)OCO2)Nc1ccc(NC(=O)c2ccccc2)cc1"
300

What value of PF on Quinolone resistance protein NorA (Staphylococcus aureus) does "CC(=O)Nc1ccc(NC(=O)/C=C/C=C/c2ccc3c(c2)OCO3)cc1" have?
260

Record "O=C(/C=C/C=C/c1ccc2c(c1)OCO2)N1CCCCC1" : what is its PF with Quinolone resistance protein NorA (Staphylococcus aureus)?
60
